- Test system: pitted morningglory
- MEASUREMENT_NOTES: Test F preemergence test
- Format: in vivo, Ipomoea lacunosa
- REPORTED_CONDITIONS: 62 g ai/ha, Preemergence; scale 0 to 100
MEASURED_ATTRIBUTE: Morningglory plant response rating

{"columns": ["MOLECULE", "VALUE_OBSERVED"],
 "data": [
  ["CCn1nc(C(F)(F)F)c(C[S+]([O-])c2cc(C)cc[n+]2[O-])c1OCC(F)(F)F (racemic)", 80],
  ["CCn1nc(C(F)(F)F)c(CS(=O)(=O)c2cc(C)cc[n+]2[O-])c1OCC(F)(F)F", 0],
  ["Cc1cc[n+]([O-])c([S+]([O-])Cc2c(C(F)(F)F)nn(C)c2Cl)c1 (racemic)", 40],
  ["CC(c1c(C(F)(F)F)nn(C)c1OCC(F)(F)F)S(=O)(=O)c1cccc[n+]1[O-] (racemic)", 98],
  ["CCn1nc(C(F)(F)F)c(CS(=O)(=O)c2cccc[n+]2[O-])c1OCC(F)(F)F", 0],
  ["Cn1nc(C(F)(F)F)c(C[S+]([O-])c2ccc(Cl)c[n+]2[O-])c1OCC(F)(F)F (racemic)", 75]
]}

* * *

Each entry below carries its recorded Plant response rating, Cotton.
- Test system: cotton
- MEASUREMENT_NOTES: Test G preemergence test
- Format: in vivo, Gossypium hirsutum
- REPORTED_CONDITIONS: 31 g ai/ha, scale 0 to 100

{"columns": ["COMPOUND", "Plant response rating, Cotton"],
 "data": [
  ["Cn1nc(C(F)(F)F)c(CS(=O)(=O)c2cccc[n+]2[O-])c1OC(F)F", 5],
  ["Cc1cc[n+]([O-])c([S+]([O-])Cc2c(C(F)(F)F)nn(C)c2OC(F)F)c1 (stereo not shown)", 0],
  ["Cn1nc(C(F)(F)F)c(CS(=O)(=O)c2ccc(Cl)c[n+]2[O-])c1OC(F)F", 0],
  ["Cn1nc(C(F)(F)F)c(C(Cl)S(=O)(=O)c2cccc[n+]2[O-])c1Cl (stereo not shown)", 0]
]}

* * *

- Test system: wild oat
- MEASUREMENT_NOTES: Test C pre-/postemergence test
- Assay type: in vivo, Avena fatua
- REPORTED_CONDITIONS: 62 g ai/ha, Preemergence; scale 0 to 100

{"columns": ["COMPOUND", "Oat, Wild plant response rating"],
 "data": [
  ["Cn1nc(C(F)(F)F)c(C[S+]([O-])c2cc(C(C)(C)C)cc[n+]2[O-])c1OC(F)F (racemic)", 80],
  ["CC(c1c(C(F)(F)F)nn(C)c1OC(F)F)S(=O)(=O)c1cc(C(C)(C)C)cc[n+]1[O-] (racemic)", 60],
  ["CCc1cc[n+]([O-])c([S+]([O-])Cc2c(C(F)(F)F)nn(C)c2OC(F)F)c1 (stereo not drawn)", 90],
  ["Cn1nc(C(F)(F)F)c(C[S+]([O-])c2ccc(Cl)c[n+]2[O-])c1OCC(F)(F)F (racemic)", 85],
  ["Cn1nc(C(F)(F)F)c(C[S+]([O-])c2ccc(F)c[n+]2[O-])c1OC(F)F (stereo not drawn)", 45],
  ["C#CCOc1c(C[S+]([O-])c2cccc[n+]2[O-])c(C(F)(F)F)nn1C (stereo not drawn)", 50],
  ["CC(c1c(C(F)(F)F)nn(CC(F)(F)F)c1Cl)[S+]([O-])c1cccc[n+]1[O-] (stereo not drawn)", 20],
  ["Cc1cc[n+]([O-])c(S(=O)(=O)Cc2c(C(F)(F)F)nn(C)c2OCC(F)(F)F)c1", 60],
  ["Cn1nc(C(F)(F)F)c(C[S+]([O-])c2ccc(Cl)c[n+]2[O-])c1Cl (racemic)", 40],
  ["Cc1cc[n+]([O-])c(S(=O)(=O)Cc2c(C(F)(F)F)nn(C)c2OCC(F)F)c1", 65],
  ["Cc1cc[n+]([O-])c(S(=O)(=O)Cc2c(C(F)(F)C(F)(F)F)nn(C)c2OCC(F)(F)F)c1", 80],
  ["[O-][n+]1cc(Cl)ccc1[S+]([O-])Cc1c(C(F)(F)F)nn(CC(F)(F)F)c1Cl (stereo not drawn)", 10],
  ["Cn1nc(C(F)(F)C(F)(F)F)c(C[S+]([O-])c2ccc(Cl)c[n+]2[O-])c1OCC(F)(F)F (stereo not drawn)", 85],
  ["CCc1cc[n+]([O-])c([S+]([O-])Cc2c(C(F)(F)F)nn(C)c2OCC(F)(F)F)c1 (stereo not drawn)", 85],
  ["Cn1nc(C(F)(F)F)c(CS(=O)(=O)c2cc(C(C)(C)C)cc[n+]2[O-])c1OC(F)F", 85]
]}

// data source = patent US20100298141A1
